As shown below, each of these molecules has a reported TGI value.
Test: Cytotoxicity against human COLON cells after 48 hrs
Assay type: functional
Units required after the number.

# count of solved cases: 2
1) Cc1nn2c(/C=C3/C(=O)Nc4c3ccc3ccccc43)c(C)nc2s1	6.61 µM
2) COc1ccc2c(c1)C(=Cc1c(OC)nc3sccn13)C(=O)N2C (mixture of isomers)	24 µM

INPUT: Request the reported TGI associated with COc1nc2sccn2c1/C=C1/C(=O)Nc2ccc(Cl)cc21
OUTPUT: 64.6 µM

----------
Assay: Cytotoxicity against human melanoma cells after 48 hrs
Format: functional
Conditions: Melanoma cell
PROPERTY_NAME: TGI (µM)
Please respond with the number in µM and leave the unit unwritten.

# count of solved cases: 5
1) COc1nc2sccn2c1/C=C1/C(=O)Nc2cccc(Cl)c21	60.3
2) Cc1cn2c(/C=C3/C(=O)Nc4cc(Cl)ccc43)c(C)nc2s1	57.5
3) COc1ccc2c(c1)C(=Cc1c(OC)nc3sccn13)C(=O)N2 (mixture of isomers)	20.9
4) COc1ccc2c(c1)/C(=C\c1c(-c3ccccn3)nc3sccn13)C(=O)N2	6.76
5) O=C1Nc2ccc(Cl)cc2C1=Cc1c(-c2ccccn2)nc2sccn12 (mixture of isomers)	11.8

INPUT: Request the reported TGI associated with COc1cc(-c2nc3sc(C)cn3c2/C=C2/C(=O)Nc3ccccc32)c(Br)c(OC)c1OC
OUTPUT: 85.1

INPUT: Request the reported TGI associated with COc1nc2sccn2c1C=C1C(=O)Nc2ccc(F)cc21 (mixture of isomers)
OUTPUT: 47.9

INPUT: Request the reported TGI associated with Cc1nn2c(/C=C3/C(=O)Nc4c3ccc3ccccc43)c(C)nc2s1
OUTPUT: 17
